Give %Inh for every item shown.
- Tested on: MLK2;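 further: KINOMEscan kinase panel screen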
- EXPERIMENTAL CONDITIONS: concentration: 1 μM, replicates: in singlicate; n = 1
Write it as a number; the unit % goes unstated.

Item O=C(NCCNc1ccnc(Nc2ccc(F)cc2)n1)Nc1ccc2c(c1)OCO2 : provide %Inh 0

Output %Inh of CCc1ccc(-c2ccc3c(c2)-c2nn(C)cc2S(=O)(=O)N3C)cc1 29

Give reported %Inh value for COc1cc2nccc(Nc3ccc(OCc4ccc(NC(C)=O)cc4)cc3)c2cc1OC.Cl 2

Give the value of %Inh reported for the following: Nc1ncnc2c1ncn2-c1cccc2ccccc12 19

Tell us which %Inh value is on record for COc1ccc(CNC(=O)NC2CCN(c3ccnc(Nc4ccc(F)cc4)n3)C2)cc1 (stereo not drawn) 0

Retrieve %Inh measured for COc1cccc(-n2cnc3c(N)ncnc32)c1 and print it. 0

Dear colleague, please send me the reported %Inh for O=C(Nc1n[nH]c2cc(-c3ccccc3F)ccc12)C1CC1 when you can. 5

For the molecule Cc1ccccc1COc1cc(-n2cnc3cc(Cl)ccc32)sc1C(N)=O , give its reported %Inh. 9

Give the measured %Inh for Nc1n[nH]c2ncc(-c3ccccc3)cc12 0

For the molecule COc1cc2ncn(-c3cc(OCc4ccncc4Br)c(C(N)=O)s3)c2cc1OC , give its reported %Inh. 17

For the molecule Nc1ncnc2c1ncn2-c1cccc(F)c1 , give its measured %Inh value. 30

Look up %Inh of O=C(Nc1n[nH]c2nc(-c3ccccc3)c(Cl)cc12)C1CC1 and report it. 0

Quote %Inh reported for COc1cc(OC)cc(-c2cc3cnc(N)nc3nc2NC(=O)NC(C)(C)C)c1 please. 0

Entry CCC(=O)c1c(-c2ccccc2)c2cc(Cl)ccc2c(=O)n1Cc1cc(C(=O)NC2CC2)n(C)n1 needs its %Inh filled in; supply it. 15

Determine its reported %Inh: CCC(=O)c1c(-c2ccccc2)c2cc(Cl)ccc2c(=O)n1Cc1cc(S(C)(=O)=O)n(CC(N)=O)n1 10

Answer with reported %Inh of COc1cc2ncn(-c3cc(OCc4ccc(S(C)(=O)=O)cc4)c(C(N)=O)s3)c2cc1OC 0

# return recorded %Inh for entry COc1ccc(-c2cc3c(C)nc(N)nc3n([C@H]3CC[C@H](O)CC3)c2=O)cn1 0

Identify %Inh associated with the molecule COC(=O)c1c(-c2ccccc2)c2cc(C)ccc2c(=O)n1Cc1ccccc1 0

Provide one value: measured %Inh of Cl.c1ccc(Cn2cnc3cc(Nc4ncnc5ccccc45)ccc32)cc1 0

Supply %Inh value. Item: CCc1nc(-c2cccc(C)c2)c(-c2ccncc2)s1 0

Give me measured %Inh, please, for this molecule: Cc1cc(Nc2nc(-c3cccc(C)n3)nc3ccccc23)ccn1 28

Give the reported value of %Inh for this record: Cc1ccc(Oc2ccc(Nc3ncnc4cc[nH]c34)cc2C)cn1 19

Determine its reported %Inh: CN1C(=O)C(Nc2ccccc2)=C(c2ccccc2)C1=O 34

Item Cc1cccc(-c2nc(Nc3ccc4c(cnn4C)c3)c3ccccc3n2)n1 : provide %Inh 16

Please indicate %Inh recorded for O=c1cc(N2CCOCC2)nc2n(Cc3ccc(F)c(Cl)c3)ccn12 0

Let me know recorded %Inh for COc1ccc(Nc2nccc(N3CCC(NS(=O)(=O)c4ccc(NC(C)=O)cc4)C3)n2)cc1 (stereo not drawn) , thanks. 48

Using the record for OCCCNc1nccc(-c2c(-c3cccc(C(F)(F)F)c3)nn3cc(C(F)(F)F)ccc23)n1 , state its measured %Inh. 0

The values you see were collected from paper PMC5540273.
